Test system: A549
Assay summary: Cytotoxicity against human A549 cells assessed as growth inhibition after 48 hrs by MTT assay
Type: functional, cell-based
Condition context: A549, 48 h
Listed compounds paired with reported IC50

- c1ccc(C[n+]2cn(C(c3ccccc3)c3cc4ccccc4o3)c3ccccc32)cc1 (stereo not given): 6.92 µM
- COc1ccc(C(=O)C[n+]2ccn(C(c3ccccc3)c3cc4ccccc4o3)c2C)cc1 (stereo not given): 8 µM
- CCCC[n+]1ccn(C(c2ccccc2)c2cc3ccccc3o2)c1 (stereo not given): > 40 µM
- O=C(C[n+]1ccn(C(c2ccccc2)c2cc3ccccc3o2)c1)c1ccc2ccccc2c1 (stereo not given): 7.77 µM
- O=[N+]([O-])c1ccc(C[n+]2ccn(C(c3ccccc3)c3cc4ccccc4o3)c2)cc1 (stereo not given): > 40 µM

Enquiry: For the compound shown here, O=C(C[n+]1cn(C(c2ccccc2)c2cc3ccccc3o2)c2ccccc21)c1ccc(O)cc1 (stereo not given) , give the reported IC50.
Return: > 40 µM

Enquiry: Suppose we examine the compound CS(=O)(=O)OC(c1ccccc1)c1cc2ccccc2o1 (stereo not given) ; what IC50 value has been reported?
Return: > 40 µM

Enquiry: Any idea what its IC50 is? The compound is Cc1n(C(c2ccccc2)c2cc3ccccc3o2)cc[n+]1CC(=O)c1ccc2ccccc2c1 (stereo not given)
Return: 8.57 µM

Enquiry: Quick check: IC50 of CCc1n(C(c2ccccc2)c2cc3ccccc3o2)cc[n+]1CC(=O)c1ccc(OC)cc1 (stereo not given) ?
Return: 5.43 µM

Enquiry: Recorded IC50 of C=CC[n+]1ccn(C(c2ccccc2)c2cc3ccccc3o2)c1C (stereo not given) , please.
Return: > 40 µM

Enquiry: IC50 lookup needed for Cc1n(C(c2ccccc2)c2cc3ccccc3o2)cc[n+]1CC(=O)c1ccc(Br)cc1 (stereo not given) , thanks.
Return: 26.1 µM

Enquiry: # lookup: IC50 of O=[N+]([O-])c1ccc(C[n+]2cn(C(c3ccccc3)c3cc4ccccc4o3)c3ccccc32)cc1 (stereo not given)
Return: > 40 µM

Enquiry: // returns reported IC50 for input CCCC[n+]1cn(C(c2ccccc2)c2cc3ccccc3o2)c2ccccc21 (stereo not given)
Return: 12.3 µM

Enquiry: I would be grateful if you could share the reported IC50 for c1ccc(C(c2cc3ccccc3o2)n2ccnc2)cc1 (stereo not given) .
Return: > 40 µM

Enquiry: Consider the compound CCc1n(C(c2ccccc2)c2cc3ccccc3o2)cc[n+]1CC(=O)c1ccc(O)cc1 (stereo not given) and give its measured IC50.
Return: > 40 µM

Enquiry: Find the recorded IC50 belonging to CCc1n(C(c2ccccc2)c2cc3ccccc3o2)cc[n+]1CC(=O)c1ccc(F)cc1 (stereo not given) and report it.
Return: 7.36 µM

Enquiry: IC50 lookup needed for Cc1n(C(c2ccccc2)c2cc3ccccc3o2)cc[n+]1Cc1ccccc1 (stereo not given) , thanks.
Return: > 40 µM

Enquiry: Entry c1ccc(C(c2cc3ccccc3o2)n2cnc3ccccc32)cc1 (stereo not given) has what IC50?
Return: > 40 µM

Enquiry: Please look up its IC50: COc1ccc(C(=O)C[n+]2cn(C(c3ccccc3)c3cc4ccccc4o3)c3ccccc32)cc1.[Br-] (stereo not given)
Return: 3.57 µM

Enquiry: IC50 for O=C(C[n+]1cn(C(c2ccccc2)c2cc3ccccc3o2)c2ccccc21)c1ccccc1 (stereo not given) ?
Return: 14.4 µM
